Values compiled from paper PMC9482650.

Entries and their pKd
- STUDY_TARGET: NHERF2_2, Q15599
- Sequence (Q15599 142-238): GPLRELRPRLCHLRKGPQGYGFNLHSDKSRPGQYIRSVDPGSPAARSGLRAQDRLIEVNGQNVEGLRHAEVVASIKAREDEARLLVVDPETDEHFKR
- ASSAY_NOTES: holdup assay
- Parameters: key: below the threshold = too weak to quantify, mostly under pKd 3.1 to 4
- EXPERIMENTAL_SETUP: plain residues with an end cap or a label only (N-terminal biotin on a linker: ado-ado)
QUANTITY_NAME: pKd

1. SRPHTNETSL [MCC, P23508]
4.49
2. IGHEDLETAV [DGKI, O75912]
4.12
3. PLATCDETSI [SEMA4F, O95754]
4.31
4. NNMAFETTHF [SLC5A12, Q1EHB4]
4.7
5. IKLETKKTKL [SLC15A2, Q16348]
4.32
6. NKSEPFLTWL [WWTR1, Q9GZV5]
5.27
7. DSEEELPTRL [GRK6, P43250]
4.51
8. SAGADSETHC [SLCO1B1, Q9Y6L6]
3.72
9. SGDGKTSVWI [GJC1, P36383]
3.98
